As shown below, each of these compounds has a reported inhibition of enzymatic autophosphorylation of YycG′ value.
Biological target: recombinant YycG′ (Staphylococcus epidermidis, UniProt Q5HK19)
Construct: made in house; host or cells: E. coli BL21 (DE3)
Sequence (Q5HK19 370-610): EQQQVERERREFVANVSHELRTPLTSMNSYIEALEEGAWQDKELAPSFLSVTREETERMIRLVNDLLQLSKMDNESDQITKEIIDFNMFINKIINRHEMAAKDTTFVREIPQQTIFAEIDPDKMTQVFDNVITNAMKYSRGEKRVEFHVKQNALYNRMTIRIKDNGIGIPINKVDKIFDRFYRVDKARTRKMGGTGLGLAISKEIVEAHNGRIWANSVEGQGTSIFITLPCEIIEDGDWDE
Assay: Inhibition of YycG′ autophosphorylation (Kinase-Glo Luminescent Kinase Assay)
Format: biochemical, S. epidermidis
Details: 100 μM derivative; YycG′ 0.13 μM
Write down the numeric answer in % and omit the unit.

O=C(O)c1ccc(-c2ccc(C=C3SC(=Nc4ccc(F)cc4)N(c4ccc(F)cc4)C3=O)s2)cc1; 55.4
O=C(O)c1ccc(-c2ccc(/C=C3\S/C(=N\c4ccccc4)N(c4ccc(F)cc4)C3=O)s2)cc1; 79.2
O=C(O)c1ccc(-c2ccc(/C=C3\S/C(=N\c4ccccc4)N(c4ccc(Cl)cc4)C3=O)o2)cc1; 59.7

Task item: # query: inhibition of enzymatic autophosphorylation of YycG′ of entry "O=C(O)c1ccc(-c2ccc(C=C3SC(=Nc4ccc(Cl)cc4)N(c4ccc(Cl)cc4)C3=O)o2)cc1"
Reply: 56.3

Task item: // lookup inhibition of enzymatic autophosphorylation of YycG′ for "O=C(O)COc1ccc(C=C2SC(=Nc3ccc(Cl)cc3)N(c3ccc(Cl)cc3)C2=O)cc1"
Reply: 53.9

Task item: If you can, please state the reported inhibition of enzymatic autophosphorylation of YycG′ value of "O=C(O)c1cccc(-c2ccc(C=C3SC(=Nc4ccc(Cl)cc4)N(c4ccc(Cl)cc4)C3=O)o2)c1" .
Reply: 61.8
